The measured values listed here are drawn from ChEMBL document CHEMBL1201862.

Test system: MCF7
experimentDescription: NCI tumour cell line growth inhibition, 48 h
Calls of active or inactive are those of the source. Cut-off read from the data, not from the text of the source: active = GI50 up to about 1.1 µM and inactive = higher.
Please reply with one of these outcomes: active, inactive

# count of solved cases: 5
- compound: "O=C(Nc1nncs1)NS(=O)(=O)n1cnc2ccccc21"
  assignedCategory: "inactive"
- compound: "CSc1nc(C)c(CCOC(C)=O)c(Cl)n1"
  assignedCategory: "inactive"
- compound: "O=Cc1c2n(c3ccccc13)N[C@@](Cc1ccc(O)cc1)(C(=O)O)C2"
  assignedCategory: "inactive"
- compound: "CC(C)[Si](OC1=CCCCCC12C(=O)N(C)c1ccccc12)(C(C)C)C(C)C (centres undefined)"
  assignedCategory: "inactive"
- compound: "O=C1/C(=C\\c2ccc([N+](=O)[O-])cc2)Sc2scc(-c3ccc(O)c(O)c3)[n+]21"
  assignedCategory: "inactive"

Field: outcome | Entry: O=C1c2c(O)ccc(O)c2C(=O)c2c(NCCNC(=O)C(O)C(O)C(O)C(O)CO)ccc(NCCNC(=O)C(O)C(O)C(O)C(O)CO)c21 (centres undefined)
active

Field: outcome | Entry: CC(=O)Nc1ccc(C(=O)NN2C(=O)C(Cl)C2c2cc(Br)ccc2O)cc1 (centres undefined)
inactive

Field: outcome | Entry: COC(=O)C1=C(OC(=O)/C(=C/c2ccccc2)c2ccc(Cl)cc2Cl)C(C(=O)OC)[C@@]2(O)[C@@H](C(=O)OC)[C@H](C)C[C@@H]1[C@@H]2C(=O)OC (some centres undefined)
inactive

Field: outcome | Entry: CSc1nc(NC(C)C)c2c(n1)Sc1nc3ccccc3n1C2O (centres undefined)
active

Field: outcome | Entry: COc1ccc(/N=C2\S/C(=N\C(=N\c3ccccc3)SCc3ccccc3)N(c3ccccc3)\C2=N/c2ccc(OC)cc2)cc1
inactive

Field: outcome | Entry: CN(C)CCCN1c2ccccc2C(C)(C)c2ccccc21
inactive

Field: outcome | Entry: COc1ccc(NC(=S)N/N=C/c2cccc(C)n2)cc1
inactive

Field: outcome | Entry: O=C1c2ccc(O)cc2OC(c2cc(O)c(O)c(O)c2)C1O (centres undefined) [DIHYDROBINETIN]
inactive

###

Tested on: MOLT-4
experimentDescription: NCI tumour cell line growth inhibition, 48 h
Active and inactive are the calls of the source. No stated cut-off is given here; in the data, active = GI50 up to about 1.1 µM and inactive = higher.
Please reply with one of these outcomes: active, inactive

- molecule: "COc1ccc(NCC(=O)Nn2c(C)nc3ccc(S(=O)(=O)Nc4ccc(OC)cc4)cc3c2=O)cc1"
  assignedCategory: "inactive"

Field: outcome | Entry: NCC(=O)N1CCN(c2nc(N3CCCC3)c3nc(Cl)c(NCc4ccccc4)nc3n2)CC1
inactive

Field: outcome | Entry: CC(C)NC(=O)CCN(C(=O)O)S(=O)(=O)c1ccc(NC(=O)c2ccccc2)cc1
inactive

Field: outcome | Entry: COc1cc([C@@H]2c3cc4c(cc3C[C@@H]3COC(=O)C32)OCO4)cc(OC)c1O (some centres not stated)
active

Field: outcome | Entry: O=C(CC(=O)c1ccccc1)CC(O)(c1ccccc1)c1ccccc1
inactive

Field: outcome | Entry: [O-]c1c2c(nn1-c1ccc(Cl)cc1)c1ccccc1c[n+]2Cc1ccccc1
inactive

Field: outcome | Entry: O=C(CC(Cl)=C(Cl)Cl)c1ccccc1
inactive

###

Tested on: HL-60
experimentDescription: NCI tumour cell line growth inhibition, 48 h
Active and inactive are the calls of the source. Rule as the data show it: active = GI50 up to about 1.1 µM and inactive = higher.
Please reply with one of these outcomes: active, inactive

- compound: "N=c1c2c(ncn1N)Oc1c(c(-c3ccccc3)nn1-c1ccccc1)C2c1ccc(Cl)cc1 (centres undefined)"
  assignedCategory: "active"
- compound: "Cc1nc2sc3cccc(Cl)c3n2c(=O)c1/N=N/c1ccc(Cl)cc1"
  assignedCategory: "inactive"
- compound: "CC(C)(C)OC(=O)NCCc1ccc(N)cc1"
  assignedCategory: "inactive"
- compound: "Nc1nc(NCC2(CO)CCC2)cc(=O)[nH]1"
  assignedCategory: "inactive"

Field: outcome | Entry: Cc1ccc2nc(-c3ccccc3)cc(=O)n2c1
inactive

Field: outcome | Entry: O=c1c2ccccc2nc(-c2ccccc2)n1NC(=S)Nc1cccc(Cl)c1
inactive

Field: outcome | Entry: Cc1ccccc1OC(C)C(=O)NN1C(=O)CC(=O)N(c2ccccc2)C1=S (centres undefined)
inactive

###

Test system: 786-0
experimentDescription: NCI tumour cell line growth inhibition, 48 h
Activity calls are given as the source filed them. Cut-off read from the data, not from the text of the source: active = GI50 up to about 1.1 µM and inactive = higher.
Please reply with one of these outcomes: class 1 = active, class 0 = inactive

# count of solved cases: 5
- compound: "COC(=O)C1=C(OC(=O)/C(=C/c2ccccc2)c2ccc(Cl)cc2Cl)C(C(=O)OC)[C@@]2(O)[C@@H](C(=O)OC)[C@H](C)C[C@@H]1[C@@H]2C(=O)OC (some centres undefined)"
  assignedCategory: "class 0"
- compound: "CN1CCN(CCCN2c3ccccc3Sc3ccc(C(F)(F)F)cc32)CC1"
  assignedCategory: "class 0"
- compound: "CN(/N=C/c1cccc2cccnc12)c1ccc(Cl)cc1[N+](=O)[O-]"
  assignedCategory: "class 0"
- compound: "CC(=O)OC1[C@H]2c3cc4c(cc3CN3CCC(C[C@@H]1OC(C)=O)C23)OCO4 (some centres undefined)"
  assignedCategory: "class 0"
- compound: "COc1cc(OC)cc(Oc2nc3c(N)cc(C(F)(F)F)cc3nc2-c2ccccc2)c1"
  assignedCategory: "class 0"

Field: outcome | Entry: Cc1nnc(N)nc1C/C=C/C(Sc1ccc(Cl)cc1)c1ccccc1 (centres undefined)
class 0

Field: outcome | Entry: CC(C)[N+]([O-])(CCCNc1c2ccccc2nc2cccc([N+](=O)[O-])c12)C(C)C
class 1

Field: outcome | Entry: CC(=O)O[C@H]1C(=O)[C@@]2(C)[C@H]([C@H](OC(=O)c3ccccc3)[C@]3(O)C[C@H](OC(=O)[C@H](O)[C@@H](NC(=O)c4ccoc4)c4ccccc4)C(C)=C1C3(C)C)[C@]1(OC(C)=O)CO[C@@H]1C[C@@H]2O
class 1

Field: outcome | Entry: CNc1ncnc2c1nnn2C
class 0

Field: outcome | Entry: CN(C)CC1(Cc2ccccc2)CC/C(=C\c2ccccc2)C1=O (centres undefined)
class 0

Field: outcome | Entry: CC(C)(C)OC(=O)CN1CCN(CC(=O)N2CCN(C(=O)OCc3ccccc3)CC2)CCN(CC(=O)OC(C)(C)C)CCN(CC(=O)N2CCN(C(=O)OCc3ccccc3)CC2)CC1
class 0

Field: outcome | Entry: CCN(CC)CCCC(C)Nc1c2ccc(Cl)cc2nc2ccc(OC)cc12 (centres undefined)
class 1

Field: outcome | Entry: CC1(C)[C@@H](Cn2cnc3c(O)nc(N)nc32)CC[C@@]1(C)CO
class 0

Field: outcome | Entry: C=C1[C@@H]([C@@]2(C)C=CC(=O)C(C)(C)[C@@H]2CC(=O)OC)CC[C@@]2(C)[C@H](c3ccoc3)OC(=O)[C@H]3O[C@]132
class 0

Field: outcome | Entry: O=C(Nc1ccc(Cl)c(C(F)(F)F)c1)C(=O)C(C(=O)/C=C/c1ccccc1)C1OC(=O)c2ccccc21 (centres undefined)
class 0

Field: outcome | Entry: CCCn1c(=O)c2ccccc2[n+]2c(-c3ccc([N+](=O)[O-])cc3)csc12
class 0

Field: outcome | Entry: CC(C)(CNC(=O)/C(Cl)=C(/Cl)C(=O)O)CNC(=O)/C(Cl)=C(/Cl)C(=O)O
class 0

Field: outcome | Entry: O=C[C@@H](CO)O[C@H](C=O)c1c[nH]c(=O)[nH]c1=O
class 0

Field: outcome | Entry: O=C1/C(=C\c2ccc([N+](=O)[O-])cc2)Sc2scc(-c3ccc(O)c(O)c3)[n+]21
class 0

###

In this section, each of the compounds is paired with its reported GI50.
Tested on: COLO 205
experimentDescription: NCI tumour cell line growth inhibition, 48 h
Calls of active or inactive are those of the source. No stated cut-off is given here; in the data, active = GI50 up to about 1.1 µM and inactive = higher.

In the examples that follow, each entry is paired with its recorded GI50.
- smilesInput: "O=C1c2ccccc2C(Br)(Br)c2ccccc21"
  GI50: "> 31.6 µM (inactive)"
- smilesInput: "CC(=O)N1NC(c2ccccc2)=CC(=O)/C1=C/C(=O)c1ccccc1"
  GI50: "> 100 µM (inactive)"

# evaluate next
Form field: reported GI50 of [O-]c1c2c(nn1-c1ccc(Cl)cc1)c1ccccc1c[n+]2Cc1ccccc1
> 100 µM (inactive)

###

System: LOX IMVI
experimentDescription: NCI tumour cell line growth inhibition, 48 h
Active and inactive are the calls of the source. No stated cut-off is given here; in the data, active = GI50 up to about 1.1 µM and inactive = higher.
measurementLabel: GI50

In the examples that follow, each entry is paired with its recorded GI50.
- molecule: "NC(=S)Nc1ccc(S(=O)(=O)Nc2ccc(S(N)(=O)=O)cc2)cc1"
  assayValue: "> 100 µM (inactive)"
- molecule: "N#CC(N)c1ccc(OCCCCCCCCCCOc2ccc(C(N)C#N)cc2)cc1 (stereo not given)"
  assayValue: "> 100 µM (inactive)"
- molecule: "CCC1=NC(C(F)(F)F)(C(F)(F)F)N=C(/N=C(/N)N(C)C(C(C)C)P(=O)(OC(C)C)OC(C)C)O1 (stereo not given)"
  assayValue: "> 100 µM (inactive)"

Form field: reported GI50 of Cc1cc(O)c2c(c1O)C(=O)c1c(O)ccc(O)c1C2=O
> 100 µM (inactive)

Form field: reported GI50 of Cc1ccc(S(=O)(=O)N/C(=C\C=C\c2ccccc2)C(=O)C(C)(C)C)cc1
> 100 µM (inactive)

Form field: reported GI50 of CN(C)CC1CCC(=C2CCCC2)C1=O (stereo not given)
16.6 µM (inactive)

Form field: reported GI50 of [O-]c1c2c(nn1-c1ccc(Cl)cc1)c1ccccc1c[n+]2Cc1ccccc1
> 100 µM (inactive)

Form field: reported GI50 of C=Cc1nc(C#N)c(N)o1
> 100 µM (inactive)

Form field: reported GI50 of Cc1ccc(S(=O)(=O)NC(=O)N[C@@H](Cc2c[nH]cn2)C(=O)O)cc1
> 100 µM (inactive)

Form field: reported GI50 of Sc1nc(S)nc(Oc2ccc(Cl)c(Cl)c2)n1
18.1 µM (inactive)

Form field: reported GI50 of Nc1n[n+](CC(=O)c2ccccc2)c2sc(-c3ccccc3)nn12
54 µM (inactive)
